Molecular target: human NaV1.8 (Homo sapiens (Human), UniProt Q9Y5Y9)
Sequence (Q9Y5Y9 whole entry): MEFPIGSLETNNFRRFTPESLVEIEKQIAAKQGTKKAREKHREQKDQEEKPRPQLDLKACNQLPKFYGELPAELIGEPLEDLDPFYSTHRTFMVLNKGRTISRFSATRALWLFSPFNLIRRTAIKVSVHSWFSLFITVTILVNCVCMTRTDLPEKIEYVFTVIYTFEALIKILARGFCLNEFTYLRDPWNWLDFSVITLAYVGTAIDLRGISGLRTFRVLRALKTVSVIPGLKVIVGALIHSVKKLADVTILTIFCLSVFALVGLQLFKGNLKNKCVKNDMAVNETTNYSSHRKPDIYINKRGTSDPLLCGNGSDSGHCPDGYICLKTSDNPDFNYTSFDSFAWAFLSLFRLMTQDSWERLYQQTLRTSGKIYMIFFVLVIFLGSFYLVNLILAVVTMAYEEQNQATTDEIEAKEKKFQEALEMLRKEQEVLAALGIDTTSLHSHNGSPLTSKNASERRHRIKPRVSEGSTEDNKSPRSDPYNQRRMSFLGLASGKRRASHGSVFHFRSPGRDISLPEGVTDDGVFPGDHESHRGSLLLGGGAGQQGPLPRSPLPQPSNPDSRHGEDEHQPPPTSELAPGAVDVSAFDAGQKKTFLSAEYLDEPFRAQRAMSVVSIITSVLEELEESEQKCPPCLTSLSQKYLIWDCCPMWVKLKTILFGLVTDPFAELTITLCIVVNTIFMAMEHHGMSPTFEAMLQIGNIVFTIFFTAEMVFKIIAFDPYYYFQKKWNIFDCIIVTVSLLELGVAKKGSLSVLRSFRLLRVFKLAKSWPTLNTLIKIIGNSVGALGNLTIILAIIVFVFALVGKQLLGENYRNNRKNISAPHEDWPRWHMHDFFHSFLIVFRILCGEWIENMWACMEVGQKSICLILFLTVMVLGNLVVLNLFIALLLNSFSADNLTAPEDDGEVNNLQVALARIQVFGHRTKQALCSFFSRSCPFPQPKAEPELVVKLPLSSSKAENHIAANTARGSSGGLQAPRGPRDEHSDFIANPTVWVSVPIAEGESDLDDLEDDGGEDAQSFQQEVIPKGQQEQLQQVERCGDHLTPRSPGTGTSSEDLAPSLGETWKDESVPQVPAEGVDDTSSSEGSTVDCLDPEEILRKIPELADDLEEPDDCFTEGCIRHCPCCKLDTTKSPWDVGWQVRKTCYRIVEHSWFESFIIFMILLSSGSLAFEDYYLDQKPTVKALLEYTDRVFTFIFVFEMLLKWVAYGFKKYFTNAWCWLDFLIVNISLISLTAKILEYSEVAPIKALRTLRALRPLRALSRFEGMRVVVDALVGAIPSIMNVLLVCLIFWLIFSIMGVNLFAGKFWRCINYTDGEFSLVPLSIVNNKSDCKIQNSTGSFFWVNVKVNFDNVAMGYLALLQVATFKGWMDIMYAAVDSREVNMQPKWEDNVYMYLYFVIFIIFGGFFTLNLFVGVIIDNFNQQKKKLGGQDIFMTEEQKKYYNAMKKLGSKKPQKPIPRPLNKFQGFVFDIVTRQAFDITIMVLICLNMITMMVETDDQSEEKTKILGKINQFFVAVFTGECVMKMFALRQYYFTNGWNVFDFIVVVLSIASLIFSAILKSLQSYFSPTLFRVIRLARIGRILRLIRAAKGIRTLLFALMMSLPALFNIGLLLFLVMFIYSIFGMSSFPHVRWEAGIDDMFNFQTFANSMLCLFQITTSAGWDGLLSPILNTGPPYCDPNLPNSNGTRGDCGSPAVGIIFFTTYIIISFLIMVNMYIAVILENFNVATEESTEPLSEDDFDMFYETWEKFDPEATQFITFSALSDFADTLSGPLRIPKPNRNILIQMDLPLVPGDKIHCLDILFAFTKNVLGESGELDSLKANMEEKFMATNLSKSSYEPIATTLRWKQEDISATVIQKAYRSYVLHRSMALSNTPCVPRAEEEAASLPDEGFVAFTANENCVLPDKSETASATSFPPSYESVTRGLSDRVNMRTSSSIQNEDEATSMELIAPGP
Assay: Nav1.8 Qube automated patch-clamp assay
Type: cell-based
Settings: human NaV1.8 stably expressed in HEK 293 cells; automated 384-well patch-clamp; resting or inactivated state not specified
property-label: IC50 (nM)

>>> reported_measurement("O=C1NC[C@@H](C(=O)NC(c2ccc(Cl)cc2)c2ccc(F)c(C(F)(F)F)c2)N1 (single isomer, unassigned) [Example 17B]")
7
>>> reported_measurement("O=C1NC[C@@H](C(=O)NC(c2ccc(C(F)(F)F)nc2)c2csc(C(F)(F)F)n2)N1 (mixture of isomers) [Example 19]")
116
>>> reported_measurement("O=C1NC[C@@H](C(=O)NC(CC2CCCOC2)c2ccc(F)c(Cl)c2F)N1 (single isomer, unassigned) [Example 26D]")
7830
>>> reported_measurement("O=C1NC[C@@H](C(=O)NC(c2ccc(F)c(Cl)c2)c2nc3ccccc3s2)N1 (single isomer, unassigned) [Example 87]")
2.9

a. CN1C(=O)NCC1C(=O)NC(c1ccc(Cl)cc1)c1ccc(Cl)cc1 (single isomer, unassigned) [Example 2A]
b. O=C1NC[C@@H](C(=O)NC(c2ccc(F)c(Cl)c2)c2ccc(Cl)c(C(F)(F)F)n2)N1 (single isomer, unassigned) [Example 62B]
Task: In terms of reported IC50, does a or b have the smaller number? Respond using the label that marks the chosen record.
Output: b
(b: 0.4 nM, a: 34 nM)
